Tested on: Bone marrow cell
RUN DESCRIPTION: Induction of mitosis in ICR mouse bone marrow cells assessed as mitotic index at 100 mg/kg, ip after 24 hrs
Format: functional
RUN CONDITIONS: route intraperitoneal
PROPERTY LABEL: Activity

COP(=O)(OC)C(Nc1ccc(C)cc1)c1c2ccccc2cc2ccccc12 (centres undefined) : 12 ‰
Cc1ccc(/N=C/c2c3ccccc3cc3ccccc23)cc1 : 10.7 ‰
C(=N\Cc1ccco1)/c1c2ccccc2cc2ccccc12 : 12.4 ‰

As a next step, examine the compound that follows.
input: Look up Activity: CCOP(=O)(OCC)C(Nc1ccc(C)cc1)c1c2ccccc2cc2ccccc12 (centres undefined)
output: 16.1 ‰

Where these numbers come from: ChEMBL document CHEMBL1926573
